test system: human lymphocytes in culture; experiment: stimulation of growth of human lymphocytes in culture after addition of specific antigens; assay type: cell-based; conditions: antigen not stated
Peptide text beside a SMILES is read from it. * marks the point of attachment. Cbz = O=C(OCc1ccccc1)*
property-label: immune response (immuno-stimulating activity)

INSERT INTO measurements (compound, recorded_result) VALUES
  ('COC(=O)[C@H](Cc1ccc(OC)cc1)NC(=O)[C@H](C)NC(=O)[C@@H]1CCCN1C(=O)OCc1ccccc1 [compound 4, Z-(L)-Pro-(L)-Ala-(L)-OmtOMe] (Cbz-Pro-Ala-Tyr(Me)-OMe)', 'slightly increased'),
  ('COC(=O)C(Cc1c[nH]c2ccccc12)NC(=O)C(CC(C)C)NC(=O)C1CCCN1C.Cl (centres unmarked) [compound 10, N-Me-(L)-Pro(L)-Leu-(L)-TrpOMe.HCl]', 'slightly increased');
